System: RPMI-8226 leukemia
assay_name: NCI tumour cell line growth inhibition, 48 h
assay_endpoint: TGI

Examples with their reported TGI follow.
INSERT INTO measurements (molecule, target_or_test_system, assay_endpoint, observed) VALUES
  ('O=c1oc2ccc(-n3c(=O)c4ccccc4c4ccccc4c3=O)cc2c2ccccc12', 'RPMI-8226 leukemia', 'TGI', '> 100 µM'),
  ('C=CN(C)S(C)(=O)=O', 'RPMI-8226 leukemia', 'TGI', '> 100 µM');

(Q) Name the reported TGI value associated with the molecule NCCC(=O)N[C@@H](Cc1cc(O)c(O)c(SCC(NC(=O)CC[C@H](N)C(=O)O)C(=O)NCC(=O)O)c1)C(=O)O (stereo not given in full)
(A) > 50 µM

(Q) Name the reported TGI value associated with the molecule CN(C)Cc1cc(C=O)cc(CN(C)C)c1O
(A) > 100 µM

(Q) Name the reported TGI value associated with the molecule O=c1c2ccccc2c2ccccc2c(=O)n1Cc1ccc2c(c1)OCO2
(A) > 67.4 µM

(Q) Name the reported TGI value associated with the molecule CCCCCCCCCCCCCCCCOCC(CCl)OP(=O)(O)OP(=O)(O)OCC1OC(n2ccc(N)nc2=O)C(O)C1O (stereo not given)
(A) > 100 µM

(Q) Name the reported TGI value associated with the molecule O=c1c2cc([N+](=O)[O-])ccc2n2n1CCCC2
(A) > 100 µM

(Q) Name the reported TGI value associated with the molecule CCCC(=O)O.CCCC(=O)O.CCCC(=O)O.CCCC(=O)O.[Rh].[Rh]
(A) 0.112 µM

(Q) Name the reported TGI value associated with the molecule CC/C(=C(/c1ccc(O)cc1)c1ccc(OCCN2CCCCC2)cc1)c1ccc(OC)cc1
(A) 3.61 µM

###

Test system: A549 NSCLC
assay_name: NCI tumour cell line growth inhibition, 48 h
Listed here: items and their measured GI50.

INSERT INTO assay_data (compound, assay_endpoint, observed) VALUES
  ('COc1cc(OC)c(NC(=O)c2cc3ccccc3cc2O)cc1Cl', 'GI50', '3.38 µM'),
  ('NC1=NCCN1CC(=O)O', 'GI50', '> 10000 µM'),
  ('C=C(CN1CCN(c2cccc(C(F)(F)F)n2)CC1)c1ccc(C(=S)Nc2ccccc2N)cc1', 'GI50', '3.32 µM');

Consider now this further compound.
(Q) What GI50 appears in the records for this compound with A549 NSCLC? CN1CC(CNC(=O)OCc2ccccc2)CC2c3cccc4c3c(cn4C)CC21 (centres undefined)
(A) 2.22 µM

###

Tested on: SNB-19 CNS
assay_name: NCI tumour cell line growth inhibition, 48 h
assay_endpoint: GI50

INSERT INTO results (structure_smiles, assay_endpoint, observed) VALUES
  ('C[n+]1ccc(-c2c3nc(c(-c4cc[n+](C)cc4)c4ccc([n-]4)c(-c4cc[n+](C)cc4)c4nc(c(-c5cc[n+](C)cc5)c5ccc2[n-]5)C=C4)C=C3)cc1.[I-].[Zn+2]', 'GI50', '19.4 µM'),
  ('COc1ccc(CNc2nc3cc(N)cc(N)c3nc2-c2ccccc2)cc1', 'GI50', '41.5 µM'),
  ('S=C(N/N=C(/c1ccccc1)c1ccccn1)N1CCCCCC1', 'GI50', '0.274 µM'),
  ('CCS(=O)(=O)Nc1cccc(Nc2c3cccc(C)c3nc3c(C)cccc23)c1OC', 'GI50', '0.572 µM'),
  ('COc1cnc2c(c1)C(=O)c1c-2n(CCCNC(C)C)c(=O)c2cc(F)ccc12', 'GI50', '0.179 µM');

(Q) Name the reported GI50 value associated with the compound c1ccc(CN=C(NCc2ccccc2)NCc2ccccc2)cc1
(A) 11 µM

###

Listed here: items and their measured TGI.
Test system: HCC-2998 colon
assay_name: NCI tumour cell line growth inhibition, 48 h

Examples with their reported TGI follow.
INSERT INTO measurements (structure_smiles, assay_endpoint, observed) VALUES
  ('O=C1c2ccccc2C(=O)N1C/C=C/CO', 'TGI', '> 100 µM'),
  ('C=CN(C)S(C)(=O)=O', 'TGI', '> 100 µM');

Consider now this further compound.
(Q) What TGI appears in the records for this compound with HCC-2998 colon? Cc1cc(C)nc(SCCc2cccc[n+]2C)n1
(A) > 100 µM

###

Tested on: UACC-257 melanoma
assay_name: NCI tumour cell line growth inhibition, 48 h
assay_endpoint: TGI

Examples with their reported TGI follow.
INSERT INTO results (compound, observed) VALUES
  ('COc1ccc(OC(C(=O)O)c2ccccc2)c2c1CCCC2=O (stereo not given)', '> 100 µM'),
  ('COc1ccccc1/C=C1\CCC(CCN2CCOCC2)C1=O (stereo not given)', '> 100 µM'),
  ('COc1ccc2oc(C(=O)O)c3c2c1CCC3', '> 100 µM'),
  ('CCCCCCCCCCCCCCCCOCC(CCl)OP(=O)(O)OP(=O)(O)OCC1OC(n2ccc(N)nc2=O)C(O)C1O (stereo not given)', '> 100 µM');

(Q) Name the reported TGI value associated with the compound CC(=O)OCC(OC(C)=O)C(OC(C)=O)C(OC(C)=O)C(C=NN(C(C)=O)S(=O)(=O)c1ccc(/C=C2\NC(=O)NC2=O)cc1)OC(C)=O (stereo not given)
(A) > 100 µM

###

Listed here: items and their measured TGI.
Test system: OVCAR-8 ovarian
assay_name: NCI tumour cell line growth inhibition, 48 h

INSERT INTO assay_data (compound, assay_endpoint, observed) VALUES
  ('O=C1CC(O)(c2ccccc2)C(c2ccccc2)=C1c1ccccc1 (stereo unspecified)', 'TGI', '> 100 µM'),
  ('O=C(NCc1ccco1)c1ccc(NC2=C(Cl)C(=O)N(Cc3ccccc3)C2=O)cc1', 'TGI', '> 100 µM'),
  ('O=C(CCC(C(=O)c1ccccc1)c1ccccc1)c1ccccc1 (stereo unspecified)', 'TGI', '> 100 µM'),
  ('COc1ccc(/C(CC2OC(=O)c3ccccc32)=N\NC(=O)C[N+](C)(C)C)cc1 (stereo unspecified)', 'TGI', '52.9 µM'),
  ('COc1ccc(OC)c(CC(C)N)c1 (stereo unspecified)', 'TGI', '> 100 µM');

(Q) What TGI appears in the records for this compound with OVCAR-8 ovarian? COc1ccc(-n2c(N)c(C#N)c(C#N)c2-c2ccccc2)cc1
(A) > 100 µM

(Q) What TGI appears in the records for this compound with OVCAR-8 ovarian? O=C1C(Cl)C(c2cc3cc(Br)ccc3nc2Cl)N1c1ccc(Cl)cc1 (stereo unspecified)
(A) > 25 µM

(Q) What TGI appears in the records for this compound with OVCAR-8 ovarian? COc1ccc2nc3ccccc3c(NCCCN(C)CCCl)c2c1
(A) 2.02 µM

(Q) What TGI appears in the records for this compound with OVCAR-8 ovarian? COC(=O)/C=C(/OC)[C@H](C)[C@H](/C=C/c1csc(-c2csc(C(C)C)n2)n1)OC
(A) > 100 µM

(Q) What TGI appears in the records for this compound with OVCAR-8 ovarian? COCn1c(C)c(C)c2c(=O)oc(N(C)C)nc21
(A) > 100 µM

(Q) What TGI appears in the records for this compound with OVCAR-8 ovarian? CCC[CH2][Sn]1([CH2]CCC)[O]C(=O)c2ccc(C)cc2[O]1
(A) 2.1 µM

###

Tested on: NCI-H460 lung
Could you please pick one outcome from this set? TRUE = active, FALSE = inactive

(Q) GET /call?item= C[C@H]1[C@H]2[C@H]3CC[C@@H]4[C@@]5(C)C/C(=C/c6cccnc6)C(=O)C(C)(C)[C@@H]5CC[C@@]4(C)[C@]3(C)CC[C@]23CO[C@]1(C)[C@@H](C(=O)/C=C\c1cccnc1)C3 returns the recorded outcome of this test.
(A) FALSE

(Q) GET /call?item= CN(C)CCOC(c1ccccc1)c1ccccc1 returns the recorded outcome of this test.
(A) FALSE

(Q) GET /call?item= CC[C@@]1(O)C(=O)OCc2c1cc1n(c2=O)Cc2c-1nc1cc3c(cc1c2C)OCO3 returns the recorded outcome of this test.
(A) TRUE

###

Tested on: MCF7 breast
assay_name: NCI tumour cell line growth inhibition, 48 h
Listed here: items and their measured log10(TGI).
# values: log10(TGI), units µM

Examples with their reported log10(TGI) follow.
INSERT INTO measurements (compound, target_or_test_system, assay_endpoint, observed) VALUES
  ('c1ccc(C(=NNc2cnc3ccccc3n2)c2ccccn2)cc1', 'MCF7 breast', 'log10(TGI)', 1.09),
  ('CC(C)=CCN1c2ccc(Cl)cc2NC(=O)CC1C (configuration not stated)', 'MCF7 breast', 'log10(TGI)', 1.66),
  ('CC1=C([Te]c2ccc(O)cc2)C(=O)c2ccccc2C1=O', 'MCF7 breast', 'log10(TGI)', 0.61),
  ('COc1ccc(-c2cc(-c3ccc(O)cc3)nc3n[nH]c(N)c23)cc1', 'MCF7 breast', 'log10(TGI)', 1.75),
  ('c1ccc(C[N+]23CN4CN(CN(C4)C2)C3)cc1', 'MCF7 breast', 'log10(TGI)', 1.97),
  ('CC(O)C1(CNc2cc(Cl)nc(N)n2)CC(CCc2ccccc2)C1 (configuration not stated)', 'MCF7 breast', 'log10(TGI)', 0.00);

(Q) Name the reported log10(TGI) value associated with the compound COC(=O)/C=C(\S/C(=N\n1cc(C(=O)OC)c(C(=O)OC)c1-c1ccc(C)cc1)c1ccc(C)cc1)C(=O)OC
(A) 1.37

(Q) Name the reported log10(TGI) value associated with the compound COc1ccc2nc3ccccc3c(NCCCN(C)CCCl)c2c1
(A) 0.16

(Q) Name the reported log10(TGI) value associated with the compound C=C1C(=O)O[C@@H]2C1C[C@@H](O)C(=C)CC/C=C(\C)CCC[C@H](C)[C@H]2OC(C)=O (some centres not stated)
(A) 1.27

(Q) Name the reported log10(TGI) value associated with the compound CN(C)CCCNC(=O)c1cncnc1Nc1ccc(OCc2cccc(F)c2)c(Cl)c1
(A) 0.49

(Q) Name the reported log10(TGI) value associated with the compound CC(=O)OCCOc1cc2c([nH]c3ccccc32)c(C)c2cccc1-2
(A) 1.18

(Q) Name the reported log10(TGI) value associated with the compound CN1CC(CNC(=O)OCc2ccccc2)CC2c3cccc4c3c(cn4C)CC21 (configuration not stated)
(A) 0.52

(Q) Name the reported log10(TGI) value associated with the compound CC[C@@]1(O)C(=O)OCc2c1cc1n(c2=O)Cc2c-1nc1cc3c(cc1c2C)OCO3
(A) -0.52

(Q) Name the reported log10(TGI) value associated with the compound COc1cc(/C=C/C(=O)CC(=O)/C=C/c2ccc(O)c(OC)c2)ccc1O
(A) 1.54

(Q) Name the reported log10(TGI) value associated with the compound CN(C)CCCCN1c2ccccc2Sc2ccc(C(=O)c3ccccc3)cc21
(A) 0.48

Origin of measurements: PubChem BioAssay (NCI)
